assayed-system: Cyclin-dependent kinase 5/CDK5 activator 1 (Homo sapiens) (UniProt Q00535+Q15078)
Sequence (Q00535 whole entry): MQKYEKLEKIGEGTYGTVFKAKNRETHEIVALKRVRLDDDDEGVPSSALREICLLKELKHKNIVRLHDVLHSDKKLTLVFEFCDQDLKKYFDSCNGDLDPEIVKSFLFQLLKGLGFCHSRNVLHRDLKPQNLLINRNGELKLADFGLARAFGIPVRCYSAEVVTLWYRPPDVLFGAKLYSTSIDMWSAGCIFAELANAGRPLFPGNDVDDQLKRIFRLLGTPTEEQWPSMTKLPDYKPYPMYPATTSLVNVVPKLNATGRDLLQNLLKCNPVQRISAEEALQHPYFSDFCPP
Sequence (Q15078 99-307 partner limits assumed): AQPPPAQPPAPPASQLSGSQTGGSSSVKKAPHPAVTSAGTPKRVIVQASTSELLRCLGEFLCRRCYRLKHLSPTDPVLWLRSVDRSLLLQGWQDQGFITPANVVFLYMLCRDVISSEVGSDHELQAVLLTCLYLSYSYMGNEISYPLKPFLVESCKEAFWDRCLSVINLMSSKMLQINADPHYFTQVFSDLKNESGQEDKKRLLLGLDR
measurement-setup: at 10 µM
Classes by residual activity: small value (below 40%), mid value (40% to below 90%), large value (90% or more)

>>> discrete_label("CSc1nc(-c2ccc(F)cc2)c(-c2ccnc(NC(C)c3ccccc3)c2)[nH]1 (stereo unspecified)")
"large value"
>>> discrete_label("Nc1nc(Nc2ccc(S(N)(=O)=O)cc2)nn1C(=O)c1c(F)cccc1F")
"small value"

For the record CCCC(=O)Oc1ccc2[nH]c(C(=O)c3cc4ccccc4[nH]3)cc2c1 , report the class its residual activity corresponds to.
large value

For the record O=c1cc(N2CCOCC2)oc2c1ccc1ccccc12 , report the class its residual activity corresponds to.
mid value

For the record CC(C)c1nn(-c2c(Cl)cccc2Cl)c2nc(Cc3ccc(OCCO)cc3)[nH]c(=O)c12 , report the class its residual activity corresponds to.
small value

For the record Cn1sc(=O)n(Cc2ccccc2)c1=O , report the class its residual activity corresponds to.
mid value

For the record Nc1n[nH]c2nc3ccccc3nc12 , report the class its residual activity corresponds to.
small value

For the record COc1cc2nccc(Oc3ccc(NC(=S)NC(=O)c4ccccc4C)cc3)c2cc1OC , report the class its residual activity corresponds to.
mid value

For the record O=C(O)/C=C/c1cc(Br)c(Br)c(Br)c1Br , report the class its residual activity corresponds to.
mid value

For the record c1ccc(-c2cnc(Nc3ccc(OCCN4CCCC4)cc3)s2)cc1 , report the class its residual activity corresponds to.
small value

###

assayed-system: Tyrosine-protein kinase ABL1 (Homo sapiens) (UniProt P00519)
Sequence (P00519 whole entry): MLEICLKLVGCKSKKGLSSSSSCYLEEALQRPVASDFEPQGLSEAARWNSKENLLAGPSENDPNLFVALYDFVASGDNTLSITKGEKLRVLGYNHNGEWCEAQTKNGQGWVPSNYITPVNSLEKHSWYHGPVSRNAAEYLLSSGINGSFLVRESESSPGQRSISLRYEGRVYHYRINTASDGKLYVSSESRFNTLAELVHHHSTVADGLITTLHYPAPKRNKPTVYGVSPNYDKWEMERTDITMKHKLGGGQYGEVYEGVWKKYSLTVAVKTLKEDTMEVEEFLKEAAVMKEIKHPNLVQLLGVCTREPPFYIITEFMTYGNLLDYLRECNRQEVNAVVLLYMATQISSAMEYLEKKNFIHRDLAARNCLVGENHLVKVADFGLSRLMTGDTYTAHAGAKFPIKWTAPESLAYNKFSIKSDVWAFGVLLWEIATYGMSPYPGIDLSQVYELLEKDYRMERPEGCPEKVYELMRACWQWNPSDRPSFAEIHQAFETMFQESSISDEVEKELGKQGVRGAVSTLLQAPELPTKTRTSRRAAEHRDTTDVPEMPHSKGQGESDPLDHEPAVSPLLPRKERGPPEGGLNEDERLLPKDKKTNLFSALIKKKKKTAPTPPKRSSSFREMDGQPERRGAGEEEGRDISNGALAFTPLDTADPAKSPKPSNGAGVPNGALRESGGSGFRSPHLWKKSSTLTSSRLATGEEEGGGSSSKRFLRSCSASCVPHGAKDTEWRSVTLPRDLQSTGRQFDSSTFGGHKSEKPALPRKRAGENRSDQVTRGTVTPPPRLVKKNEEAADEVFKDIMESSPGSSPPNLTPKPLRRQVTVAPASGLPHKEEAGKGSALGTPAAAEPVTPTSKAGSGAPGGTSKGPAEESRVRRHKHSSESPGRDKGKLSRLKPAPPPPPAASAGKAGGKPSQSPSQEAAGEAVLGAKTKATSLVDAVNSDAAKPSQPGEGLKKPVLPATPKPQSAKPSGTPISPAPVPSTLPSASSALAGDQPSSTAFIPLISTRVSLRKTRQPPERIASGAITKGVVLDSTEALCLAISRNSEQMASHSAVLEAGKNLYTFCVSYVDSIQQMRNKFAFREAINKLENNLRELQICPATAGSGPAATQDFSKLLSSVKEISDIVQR
measurement-setup: at 1 µM
property-name: residual activity (%)
Write the answer as a number in %, unit excluded.

>>> number("COc1cc2ncnc(Nc3cccc(Cl)c3)c2cc1OC")
41

Looking for the measured residual activity of CCCCc1c(-c2ccc(O)cc2)[nH]c2nccnc12 , can you help?
81

Looking for the measured residual activity of O=C(CCCc1ccc(-c2ccccc2F)cc1)Nc1ccc(O)cc1 , can you help?
110

Looking for the measured residual activity of O=C(Nc1ccc(Cl)cc1)c1ccccc1NCc1ccncc1 , can you help?
81

Looking for the measured residual activity of CC(C)[C@H](CO)Nc1nc(Nc2cc(N)cc(Cl)c2)c2ncn(C(C)C)c2n1 , can you help?
75

Looking for the measured residual activity of O=C(c1cc2cc(O)ccc2[nH]1)c1cc2cc(O)ccc2[nH]1 , can you help?
11

###

Reported residual activity is given for each of the following compounds.
assayed-system: Serine/threonine-protein kinase 33 (Homo sapiens) (UniProt Q9BYT3)
Sequence (Q9BYT3 whole entry, looked up): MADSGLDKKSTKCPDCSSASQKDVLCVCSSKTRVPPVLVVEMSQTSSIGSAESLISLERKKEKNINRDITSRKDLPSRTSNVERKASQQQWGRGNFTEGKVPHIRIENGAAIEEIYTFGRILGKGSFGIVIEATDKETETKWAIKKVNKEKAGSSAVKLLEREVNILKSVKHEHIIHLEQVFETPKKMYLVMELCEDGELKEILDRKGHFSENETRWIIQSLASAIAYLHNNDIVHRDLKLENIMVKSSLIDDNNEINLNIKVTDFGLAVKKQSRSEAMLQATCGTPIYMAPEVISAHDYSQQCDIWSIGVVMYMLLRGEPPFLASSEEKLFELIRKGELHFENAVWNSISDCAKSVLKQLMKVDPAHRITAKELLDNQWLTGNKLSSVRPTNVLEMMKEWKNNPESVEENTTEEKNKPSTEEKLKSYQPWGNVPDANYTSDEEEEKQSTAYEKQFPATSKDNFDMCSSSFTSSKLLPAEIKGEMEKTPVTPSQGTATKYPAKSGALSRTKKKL
measurement-setup: at 1 µM
Write the answer as a number in %, unit excluded.

Entry Cn1sc(=O)n(Cc2ccccc2)c1=O , system Serine/threonine-protein kinase 33 (Homo sapiens) (UniProt Q9BYT3): what residual activity was measured?
95

Entry COc1ccc(Cl)cc1NC(=O)Nc1cc(C)nc2ccccc12 , system Serine/threonine-protein kinase 33 (Homo sapiens) (UniProt Q9BYT3): what residual activity was measured?
99

Entry O=C1Nc2ccc(Cl)cc2/C1=C/c1cc(Cl)c(O)c(Cl)c1 , system Serine/threonine-protein kinase 33 (Homo sapiens) (UniProt Q9BYT3): what residual activity was measured?
88

Entry O=c1cc(N2CCOCC2)oc2c1ccc1ccccc12 , system Serine/threonine-protein kinase 33 (Homo sapiens) (UniProt Q9BYT3): what residual activity was measured?
93

Entry CCN1/C(=C/C(C)=O)Sc2ccc(OC)cc21 , system Serine/threonine-protein kinase 33 (Homo sapiens) (UniProt Q9BYT3): what residual activity was measured?
82

Entry CCOC(=O)c1c(C)[nH]c(/C=C2\C(=O)Nc3ccccc32)c1C , system Serine/threonine-protein kinase 33 (Homo sapiens) (UniProt Q9BYT3): what residual activity was measured?
89

###

assayed-system: Vascular endothelial growth factor receptor 1 (Homo sapiens)
measurement-setup: at 10 µM
Reported residual activity is given for each of the following compounds.
Please state the number and follow it with the unit.

Solved entries (count: 8):
>>> result("CCCC(=O)Oc1ccc2[nH]c(C(=O)c3cc4ccccc4[nH]3)cc2c1")
"86%"
>>> result("CSc1nc(-c2ccc(F)cc2)c(-c2ccnc(NC(C)c3ccccc3)c2)[nH]1 (configuration not stated)")
"80%"
>>> result("O=C1Cc2c([nH]c3ccc(Br)cc23)-c2ccccc2N1")
"39%"
>>> result("O=C1C(Cl)=C(N2C(=O)CCC2=O)C(=O)c2ccccc21")
"84%"
>>> result("CCCCc1c(-c2ccc(O)cc2)[nH]c2nccnc12")
"11%"
>>> result("COc1ccc(Cl)cc1NC(=O)Nc1cc(C)nc2ccccc12")
"91%"
>>> result("Nc1ncnc2c1c(-c1ccc(Oc3ccccc3)cc1)cn2C1CCCC1")
"0%"
>>> result("c1ccc(-c2cnc(Nc3ccc(OCCN4CCCC4)cc3)s2)cc1")
"0%"

Looking for the measured residual activity of COc1ccc(-c2cnc3c(-c4ccsc4)cnn3c2)cc1 , can you help?
48%

Looking for the measured residual activity of O=C(O)/C=C/c1cc(Br)c(Br)c(Br)c1Br , can you help?
67%

Looking for the measured residual activity of Nc1ncnc2c1cnn2-c1ccccc1 , can you help?
88%

Looking for the measured residual activity of CCN1/C(=C/C(C)=O)Sc2ccc(OC)cc21 , can you help?
81%

###

assayed-system: Serine/threonine-protein kinase NLK (Homo sapiens)
measurement-setup: at 10 µM
Classes by residual activity: lower segment: < 40%; middle segment: ≥ 40% and < 80%; upper segment: ≥ 80%

Would you please look over these solved cases?
>>> discrete_label("COc1cc2c(cc1OC)-c1n[nH]c(Nc3cccc(F)c3)c1C2")
"lower segment"
>>> discrete_label("O=C1Nc2ccc(Cl)cc2/C1=C/c1cc(Cl)c(O)c(Cl)c1")
"lower segment"
>>> discrete_label("CSc1nc(-c2ccc(F)cc2)c(-c2ccnc(NC(C)c3ccccc3)c2)[nH]1 (stereo not given)")
"lower segment"
>>> discrete_label("CCCC(=O)Oc1ccc2[nH]c(C(=O)c3cc4ccccc4[nH]3)cc2c1")
"upper segment"
>>> discrete_label("O=C1NC(=O)C(c2cn(CCCO)c3ncccc23)=C1c1cnccn1")
"upper segment"

For the record Cn1sc(=O)n(Cc2ccccc2)c1=O , report the class its residual activity corresponds to.
upper segment

For the record CC(C)c1nn(-c2c(Cl)cccc2Cl)c2nc(Cc3ccc(OCCO)cc3)[nH]c(=O)c12 , report the class its residual activity corresponds to.
middle segment

For the record O=C(c1ccccc1)c1ccc(N2CCOCC2)cc1O , report the class its residual activity corresponds to.
middle segment

###

assayed-system: Ephrin type-A receptor 3 (Homo sapiens) (UniProt P29320)
Sequence (P29320 whole entry): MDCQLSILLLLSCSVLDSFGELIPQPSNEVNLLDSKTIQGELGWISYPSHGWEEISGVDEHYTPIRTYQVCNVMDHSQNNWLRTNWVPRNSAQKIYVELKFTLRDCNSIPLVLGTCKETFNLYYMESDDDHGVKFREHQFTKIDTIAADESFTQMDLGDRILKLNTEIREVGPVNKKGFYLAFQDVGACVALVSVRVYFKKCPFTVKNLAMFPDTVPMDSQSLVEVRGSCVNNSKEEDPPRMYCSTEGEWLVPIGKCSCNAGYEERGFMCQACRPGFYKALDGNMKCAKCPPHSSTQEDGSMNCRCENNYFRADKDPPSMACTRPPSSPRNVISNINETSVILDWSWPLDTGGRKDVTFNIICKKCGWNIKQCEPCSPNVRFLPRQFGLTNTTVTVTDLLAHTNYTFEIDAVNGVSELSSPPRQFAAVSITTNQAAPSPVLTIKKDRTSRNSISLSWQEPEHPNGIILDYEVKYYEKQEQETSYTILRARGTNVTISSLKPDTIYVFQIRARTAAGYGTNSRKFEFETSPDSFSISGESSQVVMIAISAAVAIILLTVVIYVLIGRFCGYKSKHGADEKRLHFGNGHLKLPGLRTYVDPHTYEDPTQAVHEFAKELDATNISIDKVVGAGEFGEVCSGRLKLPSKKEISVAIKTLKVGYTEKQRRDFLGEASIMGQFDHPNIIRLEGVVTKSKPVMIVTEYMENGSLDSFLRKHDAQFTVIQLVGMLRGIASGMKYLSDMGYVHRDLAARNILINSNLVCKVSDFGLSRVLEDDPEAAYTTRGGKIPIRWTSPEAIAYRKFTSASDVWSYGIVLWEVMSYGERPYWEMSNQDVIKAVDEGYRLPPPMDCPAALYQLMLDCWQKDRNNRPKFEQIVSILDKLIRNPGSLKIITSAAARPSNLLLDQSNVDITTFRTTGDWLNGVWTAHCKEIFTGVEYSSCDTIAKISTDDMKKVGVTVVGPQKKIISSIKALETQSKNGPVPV
measurement-setup: at 1 µM
Label -1 if residual activity falls below 90%; label 1 in every other case.

Would you please look over these solved cases?
>>> discrete_label("CC(C)(C)n1nc(Cc2cccc3ccccc23)c2c(N)ncnc21")
-1
>>> discrete_label("Nc1ncnc2c1c(-c1ccc(Oc3ccccc3)cc1)cn2C1CCCC1")
1
>>> discrete_label("O=C1C(Cl)=C(N2C(=O)CCC2=O)C(=O)c2ccccc21")
-1
>>> discrete_label("NC(=O)Nc1sc(-c2ccc(F)cc2)cc1C(N)=O")
-1
>>> discrete_label("CC(C)[C@H](CO)Nc1nc(Nc2cc(N)cc(Cl)c2)c2ncn(C(C)C)c2n1")
1
>>> discrete_label("NC(=O)c1ccc(-c2nc(-c3ccc4c(c3)OCCO4)c(-c3ccccn3)[nH]2)cc1")
1

Could you verify whether the entry O=C(CCCc1ccc(-c2ccccc2F)cc1)Nc1ccc(O)cc1 shows residual activity of no less than 90%?
1

Could you verify whether the entry Nc1n[nH]c2nc3ccccc3nc12 shows residual activity of no less than 90%?
1

Could you verify whether the entry COc1ccc(COc2ccc(Cc3cnc(N)nc3N)cc2OC)cc1 shows residual activity of no less than 90%?
1

###

assayed-system: Serine/threonine-protein kinase 17A (Homo sapiens)
measurement-setup: at 1 µM
property-name: residual activity (%)
Write the answer as a number in %, unit excluded.

>>> number("O=c1cc(N2CCNCC2)oc2c(-c3ccccc3)cccc12")
69
>>> number("COc1ccc(Cl)cc1NC(=O)Nc1cc(C)nc2ccccc12")
97
>>> number("CCOC(=O)c1c(C)[nH]c(/C=C2\\C(=O)Nc3ccccc32)c1C")
86
>>> number("Nc1n[nH]c2nc3ccccc3nc12")
86
>>> number("CC(C)(C)n1nc(Cc2cccc3ccccc23)c2c(N)ncnc21")
120
>>> number("O=C1NC(=O)c2c1c1c3ccccc3[nH]c1n1cncc21")
10
>>> number("CC(C)c1nn(-c2c(Cl)cccc2Cl)c2nc(Cc3ccc(OCCO)cc3)[nH]c(=O)c12")
96
>>> number("Nc1ncnc2[nH]nc(Nc3ccc(F)cc3)c12")
45

Looking for the measured residual activity of O=C(Nc1ccc(Cl)cc1)c1ccccc1NCc1ccncc1 , can you help?
99

Looking for the measured residual activity of O=C1NC(=O)C(c2cn(CCCO)c3ncccc23)=C1c1cnccn1 , can you help?
89

Looking for the measured residual activity of O=C(Nc1nc2ccccc2n1CCN1CCOCC1)c1cccc([N+](=O)[O-])c1 , can you help?
104

Looking for the measured residual activity of N#Cc1c(NC(=O)c2cccc3ccccc23)sc2c1CCCC2 , can you help?
77

Ref: ChEMBL document CHEMBL2218924
